Property: normalized intracellular growth; scope: individual compounds
Tested on: Salmonella enterica serovar Typhimurium SL1344
Assay: normalized intracellular growth (luminescence, IQM-normalized) in RAW264.7 macrophages (fraction of plate interquartile mean); higher = more bacterial growth (less inhibition)
Conditions: 10 µM, time point: Tfinal (~6 h)
The full ranking holds about 1,600 compounds; the median of “normalized intracellular growth (luminescence, IQM-normalized) in RAW264.7 macrophages” is about 1, and the lowest 2% start at about 0.43. This is one part of a sample in which the lowest values are shown more often than they occur.
I only need the number, thanks.

Solved entries:
COc1c2occc2cc2ccc(=O)oc12 :: 1.36
COc1cc(/C=C/C(N)=O)cc(OC)c1OC :: 1.03
CCCCCC(C)N (configuration not stated) :: 0.979
CC(C)(O/N=C(\C(=O)N[C@@H]1C(=O)N2C(C(=O)[O-])=C(C[n+]3ccccc3)CS[C@H]12)c1csc(N)n1)C(=O)O :: 0.806
OC[C@H]1O[C@H](O[C@H]2[C@H](O)[C@@H](O)C(O)O[C@@H]2CO)[C@H](O)[C@@H](O)[C@@H]1O (some centres not stated) :: 0.986
NCCCC(=O)O :: 1.05

Tell me the measured normalized intracellular growth of CCc1cn([C@H]2C[C@H](O)[C@@H](CO)O2)c(=O)[nH]c1=O , please. 0.868

Please look up its normalized intracellular growth: CC(=O)N(c1onc(C)c1C)S(=O)(=O)c1ccc(N)cc1 1.02

Using the record for O=c1cc[nH]c(=O)[nH]1 , report its normalized intracellular growth. 0.9

====

System: Salmonella enterica serovar Typhimurium SL1344
Test: normalized intracellular growth (luminescence, IQM-normalized) in RAW264.7 macrophages (fraction of plate interquartile mean); higher = more bacterial growth (less inhibition)
Conditions: 10 µM, time point: Tfinal (~6 h)
The full ranking holds about 1,600 compounds; the median of “normalized intracellular growth (luminescence, IQM-normalized) in RAW264.7 macrophages” is about 1, and the lowest 2% start at about 0.43. Shown is part of a subset that was picked to be rich in the lowest values.
Label YES when normalized intracellular growth is at or above 0.9; otherwise label NO.

Solved cases (5 shown):
C[C@@H]1O[C@@H](OC[C@H]2O[C@@H](Oc3c(-c4ccc(OCCO)c(OCCO)c4)oc4cc(OCCO)cc(O)c4c3=O)[C@H](O)[C@@H](O)[C@@H]2O)[C@H](O)[C@H](O)[C@H]1O :: NO
Cc1oc(=O)oc1CN1CCN(c2cc3c(cc2F)c(=O)c(C(=O)O)c2n3C(C)S2)CC1 (stereo not given) :: NO
O=C(O)CN(CCN(CC(=O)O)CC(=O)O)CC(=O)O.[Na+].[Na+].[Na+] :: YES
N[C@@H](Cc1ccc(O)cc1)C(=O)O :: NO
CC(=O)Nc1ccc(S(=O)(=O)Nc2ccc([N+](=O)[O-])cc2)cc1 :: YES

Test whether the molecule O=C(N[C@H](CO)[C@H](O)c1ccc([N+](=O)[O-])cc1)C(Cl)Cl records normalized intracellular growth of 0.9 or higher. NO

Test whether the molecule C=C(C)[C@H]1CC=C(C)CC1 records normalized intracellular growth of 0.9 or higher. YES

Is normalized intracellular growth for CC(C(=O)O)c1ccc(CC2CCCC2=O)cc1 (stereo not given) at or above 0.9? YES

Is the recorded value of normalized intracellular growth equal to or greater than 0.9 for this molecule? FC(F)(Cl)C(F)(F)Cl NO

====

normalized intracellular growth listing for selected molecules.
Test system: Salmonella enterica serovar Typhimurium SL1344
Assay: normalized intracellular growth (luminescence, IQM-normalized) in RAW264.7 macrophages (fraction of plate interquartile mean); higher = more bacterial growth (less inhibition)
Settings: 10 µM, time point: T3 (3 h)
In all, about 1,600 compounds were measured (“normalized intracellular growth (luminescence, IQM-normalized) in RAW264.7 macrophages”: median about 1, lowest 2% from about 0.43 on). The full list was thinned out, with the lowest values kept by preference.

Would you please look over these solved cases?
COCC1=C(C(=O)OC(C)OC(=O)OC(C)C)N2C(=O)[C@@H](NC(=O)/C(=N\OC)c3csc(N)n3)[C@H]2SC1 (some centres undefined) :: 0.953
CO/N=C(\C(=O)N[C@@H]1C(=O)N2C(C(=O)OC(C)OC(C)=O)=C(COC(N)=O)CS[C@H]12)c1ccco1 (some centres undefined) :: 1.09
CCCCCCCCCCOc1cc2c(O)c(C(=O)OCC)cnc2cc1OCC :: 0.942
CC(=O)Nc1ccc(S(=O)(=O)c2ccc(NC(C)=O)cc2)cc1 :: 1.01
CS(=O)(=O)c1ccc([C@@H](O)[C@@H](CO)NC(=O)C(Cl)Cl)cc1 :: 0.925
CO/N=C(\C(=O)N[C@@H]1C(=O)N2C(C(=O)O)=C(CSc3nnnn3C)CS[C@H]12)c1csc(N)n1 :: 0.987
CC(=O)Nc1ccc(S(=O)(=O)Nc2ccc([N+](=O)[O-])cc2)cc1 :: 0.992
O=C(O)CCC(=O)OC[C@@H](NC(=O)C(Cl)Cl)[C@H](O)c1ccc([N+](=O)[O-])cc1 :: 0.927

Consider now this further molecule.
Requested read-out normalized intracellular growth, target or system Salmonella enterica serovar Typhimurium SL1344, entry NC(=O)c1ccc([N+](=O)[O-])cc1Cl 1.06

====

System: Salmonella enterica serovar Typhimurium SL1344
Experiment: normalized intracellular growth (luminescence, IQM-normalized) in RAW264.7 macrophages (fraction of plate interquartile mean); higher = more bacterial growth (less inhibition)
Details: 10 µM, time point: T3 (3 h)
Over roughly 1,600 compounds, “normalized intracellular growth (luminescence, IQM-normalized) in RAW264.7 macrophages” has its median near 1; the lowest 2% begin near 0.43. Only a selection was taken, and the lowest values are over-represented in it overall.
A collection of compounds and their measured normalized intracellular growth
Reply briefly: the number, and no unit.

Examples with answers:
CC(C)Nc1ncccn1 :: 0.928
CC(O)(CC(=O)O)CC(=O)O :: 0.971
COc1ccc(Cc2cnc(N)nc2N)cc1OC :: 0.784
Nc1nc(=O)[nH]cc1F :: 1.07
O=c1[nH]cc(F)c(=O)[nH]1 :: 0.731
C[C@@H]1NC(=O)[C@@H](N)CNC(=O)[C@H](C2CCNC(=N)N2)NC(=O)/C(=C/NC(N)=O)NC(=O)[C@H](CNC(=O)CC(N)CCCN)NC1=O.N=C1NCC[C@H]([C@@H]2NC(=O)/C(=C/NC(N)=O)NC(=O)[C@H](CNC(=O)C[C@@H](N)CCCN)NC(=O)[C@H](CO)NC(=O)[C@@H](N)CNC2=O)N1 :: 0.976
COc1cc(/C=C/C(N)=O)cc(OC)c1OC :: 1.04

Please find the next compound below.
Find the measured normalized intracellular growth: item CC(C(=O)O)c1ccc(CC2CCCC2=O)cc1 (stereo not drawn) , target or system Salmonella enterica serovar Typhimurium SL1344. 1.05

====

Test system: Salmonella enterica serovar Typhimurium SL1344
Assay: normalized intracellular growth (luminescence, IQM-normalized) in RAW264.7 macrophages (fraction of plate interquartile mean); higher = more bacterial growth (less inhibition)
Conditions: 10 µM, time point: T3 (3 h)
In all, about 1,600 compounds were measured (“normalized intracellular growth (luminescence, IQM-normalized) in RAW264.7 macrophages”: median about 1, lowest 2% from about 0.43 on). The sample as a whole holds a higher share of the lowest values than the screen did.
I would appreciate it if you labelled entries TRUE when normalized intracellular growth is 1 or higher, otherwise FALSE.

Please review the following examples before continuing.
Cc1nnc(SCC2=C(C(=O)O)N3C(=O)[C@@H](NC(=O)Cn4cnnn4)[C@H]3SC2)s1 :: TRUE
CN(C)[C@@H]1C(O)=C(C(N)=O)C(=O)[C@@]2(O)C(O)=C3C(=O)c4c(O)cccc4[C@@](C)(O)[C@H]3C[C@@H]12 :: FALSE
CC(=O)[C@@]1(O)CC[C@H]2[C@@H]3C=C(Cl)C4=CC(=O)[C@@H]5C[C@@H]5[C@]4(C)[C@H]3CC[C@@]21C :: TRUE

Please indicate if the recorded normalized intracellular growth for CO/N=C(\C(=O)N[C@@H]1C(=O)N2C(C(=O)OCOC(=O)C(C)(C)C)=C(/C=C\c3scnc3C)CS[C@H]12)c1csc(N)n1 meets or exceeds 1. FALSE

State whether the measured normalized intracellular growth reaches 1, counting equality as reaching it, for N[C@@H](C(=O)N[C@@H]1C(=O)N2C(C(=O)O)=C(Cl)CS[C@H]12)c1ccccc1 TRUE

====

Tested on: Salmonella enterica serovar Typhimurium SL1344
Test: normalized intracellular growth (luminescence, IQM-normalized) in RAW264.7 macrophages (fraction of plate interquartile mean); higher = more bacterial growth (less inhibition)
Conditions: 10 µM, time point: T3 (3 h)
In all, about 1,600 compounds were measured (“normalized intracellular growth (luminescence, IQM-normalized) in RAW264.7 macrophages”: median about 1, lowest 2% from about 0.43 on). The full list was thinned out, with the lowest values kept by preference.
# cutoff 1 applies to normalized intracellular growth; >= gives fulfilled, < gives not fulfilled

COc1c(N2C[C@@H]3CCCN[C@@H]3C2)c(F)cc2c(=O)c(C(=O)O)cn(C3CC3)c12 :: fulfilled

Pending molecule:
// inclusive: normalized intracellular growth at least 1? input: CO/N=C1\CN(c2nc3c(cc2F)c(=O)c(C(=O)O)cn3C2CC2)CC1CN (stereo not given) not fulfilled
